Origin of measurements: the kinase profiling compilation of Christmann-Franck et al. (2016)

target: LATS2 (human) (UniProt Q9NRM7); experiment: KINOMEscan competition binding; conditions: compound 10.0 µM
Sequence (Q9NRM7 whole entry, looked up): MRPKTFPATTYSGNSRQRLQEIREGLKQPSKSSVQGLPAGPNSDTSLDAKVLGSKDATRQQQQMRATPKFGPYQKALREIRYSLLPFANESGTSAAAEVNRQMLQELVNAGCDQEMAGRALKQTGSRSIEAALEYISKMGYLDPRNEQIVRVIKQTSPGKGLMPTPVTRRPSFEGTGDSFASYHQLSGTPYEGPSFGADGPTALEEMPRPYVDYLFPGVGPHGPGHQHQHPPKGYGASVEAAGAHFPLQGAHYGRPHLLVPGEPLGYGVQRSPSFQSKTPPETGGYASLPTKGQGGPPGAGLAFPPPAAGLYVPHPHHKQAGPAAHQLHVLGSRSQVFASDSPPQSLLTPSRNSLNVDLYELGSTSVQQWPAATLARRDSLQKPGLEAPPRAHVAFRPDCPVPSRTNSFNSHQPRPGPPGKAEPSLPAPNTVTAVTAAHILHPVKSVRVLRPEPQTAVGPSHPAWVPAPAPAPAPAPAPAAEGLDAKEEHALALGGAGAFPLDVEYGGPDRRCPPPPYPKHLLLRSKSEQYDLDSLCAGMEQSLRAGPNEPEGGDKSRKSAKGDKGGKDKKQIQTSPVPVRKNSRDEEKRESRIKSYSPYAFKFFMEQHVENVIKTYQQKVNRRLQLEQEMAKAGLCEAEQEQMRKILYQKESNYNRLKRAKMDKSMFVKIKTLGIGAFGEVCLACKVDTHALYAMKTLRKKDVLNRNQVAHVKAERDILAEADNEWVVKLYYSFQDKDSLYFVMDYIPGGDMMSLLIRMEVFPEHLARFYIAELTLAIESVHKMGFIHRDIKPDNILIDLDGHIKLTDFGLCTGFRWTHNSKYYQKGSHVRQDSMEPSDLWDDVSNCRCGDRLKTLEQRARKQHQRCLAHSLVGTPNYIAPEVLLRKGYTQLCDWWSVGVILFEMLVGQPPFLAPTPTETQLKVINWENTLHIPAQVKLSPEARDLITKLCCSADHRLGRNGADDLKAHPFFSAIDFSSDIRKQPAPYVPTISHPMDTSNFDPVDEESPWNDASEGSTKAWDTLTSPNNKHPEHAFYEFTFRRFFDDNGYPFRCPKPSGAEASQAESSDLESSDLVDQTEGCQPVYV
MEASUREMENT_TYPE: kinase still bound, per cent of control (%)

Worked examples, 2 compounds total:
SMILES_CODE: Cn1cc(C2=C(c3ccc(Cl)cc3Cl)C(=O)NC2=O)c2ccccc21
STUDY_TARGET: LATS2 (human) (UniProt Q9NRM7)
UNIT_LABEL: %
NUMERIC_READOUT: 100
--
SMILES_CODE: Cc1cnc(-c2cnc(NCCNc3ccc(C#N)cn3)nc2-c2ccc(Cl)cc2Cl)[nH]1
STUDY_TARGET: LATS2 (human) (UniProt Q9NRM7)
UNIT_LABEL: %
NUMERIC_READOUT: 100

I. COc1ccc(CNC(=O)Nc2ncc([N+](=O)[O-])s2)cc1
II. O=C1Nc2cc(Br)ccc2/C1=C1/Nc2ccccc2/C1=N\O
input: In the pair I and II , the larger recorded kinase still bound, per cent of control belongs to which? API: response body contains the label of the selected item.
output: I
